Let's look at some compounds and their measured Ki.
Study target: Acetylcholinesterase (Homo sapiens, UniProt P22303)
Sequence (P22303 whole entry): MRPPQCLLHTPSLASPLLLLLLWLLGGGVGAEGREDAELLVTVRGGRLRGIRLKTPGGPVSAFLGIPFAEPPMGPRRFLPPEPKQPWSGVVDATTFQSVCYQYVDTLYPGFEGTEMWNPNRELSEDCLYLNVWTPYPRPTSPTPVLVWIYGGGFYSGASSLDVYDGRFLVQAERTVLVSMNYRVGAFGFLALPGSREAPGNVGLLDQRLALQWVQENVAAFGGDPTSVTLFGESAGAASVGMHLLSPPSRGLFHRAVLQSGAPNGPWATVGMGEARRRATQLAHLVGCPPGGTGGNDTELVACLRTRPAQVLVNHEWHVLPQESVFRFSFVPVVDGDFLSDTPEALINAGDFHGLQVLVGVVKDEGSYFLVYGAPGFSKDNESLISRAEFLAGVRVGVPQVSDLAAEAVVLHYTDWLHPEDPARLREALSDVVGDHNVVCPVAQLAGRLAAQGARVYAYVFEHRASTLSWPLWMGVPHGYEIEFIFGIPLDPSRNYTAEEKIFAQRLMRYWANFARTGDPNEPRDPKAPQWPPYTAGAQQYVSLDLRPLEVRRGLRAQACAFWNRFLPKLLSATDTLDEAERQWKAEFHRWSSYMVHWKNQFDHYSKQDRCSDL

Compound	Ki, nM
CCC1=C[C@@H]2Cc3nc4cc(Cl)ccc4c(N)c3[C@H](C1)C2 (racemic)	0.026
COc1cc2c(c3oc(=O)c4c(c13)CCC4=O)[C@@H]1C=CO[C@@H]1O2	28000
Cc1ccc2c(c1)sc(-c1ccc(N(C)C)cc1)[n+]2C	1000
COc1cc(-c2cc3c(c(=O)o2)C[C@]2(O)[C@@]4(C)C(=O)C=CC(C)(C)[C@]4(O)CC[C@@]2(C)O3)cc(OC)c1OC	1.7
Cc1cccc2c3c(ccc12)C1=C(C(=O)C3=O)[C@@H](C)CO1 [Dihydrotanshinone I]	750
C/C=C1\C2C=C(C)CC1(N)c1ccc(=O)[nH]c1C2 (stereo not drawn) [(+)-Huperzine A]	4.6

* * *

Below are pKi values measured for Acetylcholinesterase (Mus musculus).
pKi: −log10 of the molar value.
Quantity kind: pKi

Compound	Study target	Result number
C[n+]1c2ccccc2cc2ccccc21 [N-methylacridinium]	Acetylcholinesterase (Mus musculus)	6.51
CC[N+](C)(C)c1cccc(O)c1 [Edrophonium Chloride, 3]	Acetylcholinesterase (Mus musculus)	6.60
O=c1ccc2ccccc2o1 [2H-chromen-2-one]	Acetylcholinesterase (Mus musculus)	5.03
